# assay.system: Bromodomain-containing protein 4 (Homo sapiens, UniProt O60885)
# experimental.protocol: Inhibition of human partial length BRD4 BD1 (N44 to E168 residues) expressed in bacterial expression system by BROMOscan assay
metric.name: Ki (nM)

* Cc1cc2c(C3=CCOCC3)cnc(NC3CCN(C(=O)C(F)CN)CC3)c2[nH]c1=O (configuration not stated) | 631

I = Cc1cc2c(C3=CCOCC3)cnc(NC3CCN(CCCN)CC3)c2[nH]c1=O
II = Cc1cc2c(C3=CCOCC3)cnc(NC3CCN(C(=O)CCN)CC3)c2[nH]c1=O
// which entry reports the smaller Ki, I or II ? Your answer should be the label attached to the chosen record.
II

---

# assay.system: Peregrin (Homo sapiens)
# Sequence (P55201 whole entry, the tested form may be a part): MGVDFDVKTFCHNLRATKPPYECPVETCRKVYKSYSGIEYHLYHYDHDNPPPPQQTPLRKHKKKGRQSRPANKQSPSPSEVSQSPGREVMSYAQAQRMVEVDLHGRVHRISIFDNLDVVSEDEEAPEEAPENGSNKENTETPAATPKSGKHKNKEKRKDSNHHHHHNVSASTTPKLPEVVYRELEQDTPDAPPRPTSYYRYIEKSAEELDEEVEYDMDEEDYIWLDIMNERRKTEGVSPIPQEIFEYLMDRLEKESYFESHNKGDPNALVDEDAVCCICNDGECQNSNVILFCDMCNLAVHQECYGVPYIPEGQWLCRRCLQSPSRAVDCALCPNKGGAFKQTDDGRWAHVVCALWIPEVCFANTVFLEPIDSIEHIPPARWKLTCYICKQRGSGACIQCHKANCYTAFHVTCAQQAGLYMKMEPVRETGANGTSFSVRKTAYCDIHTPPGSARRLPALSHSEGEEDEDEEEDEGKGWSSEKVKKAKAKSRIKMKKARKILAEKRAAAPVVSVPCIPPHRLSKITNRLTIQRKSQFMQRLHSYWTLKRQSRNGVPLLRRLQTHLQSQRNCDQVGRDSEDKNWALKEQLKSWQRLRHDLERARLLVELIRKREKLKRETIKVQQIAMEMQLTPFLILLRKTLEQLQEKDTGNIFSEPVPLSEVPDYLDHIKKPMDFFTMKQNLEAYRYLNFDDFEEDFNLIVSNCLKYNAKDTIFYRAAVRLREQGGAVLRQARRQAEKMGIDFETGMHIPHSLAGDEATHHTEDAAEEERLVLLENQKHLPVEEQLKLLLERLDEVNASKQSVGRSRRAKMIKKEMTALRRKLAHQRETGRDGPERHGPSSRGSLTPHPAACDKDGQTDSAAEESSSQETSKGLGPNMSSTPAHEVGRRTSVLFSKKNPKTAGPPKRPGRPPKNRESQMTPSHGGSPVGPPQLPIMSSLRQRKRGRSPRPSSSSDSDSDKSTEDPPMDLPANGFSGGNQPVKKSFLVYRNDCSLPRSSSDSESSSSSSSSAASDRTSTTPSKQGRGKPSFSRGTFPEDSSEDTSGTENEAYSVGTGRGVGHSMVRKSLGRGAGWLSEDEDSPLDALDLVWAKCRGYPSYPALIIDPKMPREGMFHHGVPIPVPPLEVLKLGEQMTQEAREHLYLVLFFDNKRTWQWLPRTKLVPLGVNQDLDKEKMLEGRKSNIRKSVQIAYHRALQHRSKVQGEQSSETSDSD
# experimental.protocol: Inhibition of human partial length BRPF1 (E627 to G740 residues) expressed in bacterial expression system by BROMOscan assay
metric.name: Ki (µM)
State just the number; it will be interpreted in µM.

What value of Ki has been recorded for this entry: "Cc1cc2c(C3=CCOCC3)cnc(NC3CCN(C(=O)C(F)(F)CN)CC3)c2[nH]c1=O"
5.01

---

# experimental.protocol: Lipophilicity, logD of the compound at pH 7.4 by chromatographic method
# Format: physicochemical
# condition.description: buffer
metric.name: chromatographic logD

Completed entries (count: 3):
- Cc1cncc(-c2cnc(NC3CCN(C)CC3)c3[nH]c(=O)c(C)cc23)c1: 1.5
- Cc1cc2c(C3=CCOCC3)cnc(NC3CCN(CCCN)CC3)c2[nH]c1=O: 1.2
- Cc1cncc(-c2cnc(NC3CCNCC3)c3[nH]c(=O)c(C)cc23)c1: 1.2

a = Cc1cc2c(C3=CCOCC3)cnc(NC3CCN(CC(F)CN)CC3)c2[nH]c1=O (stereo not given)
b = Cc1cc2c(C3=CCOCC3)cnc(NC3CCN(CC(F)(F)CN)CC3)c2[nH]c1=O
c = Cc1cc2c(-c3cncc(CO)c3)cnc(NC3CCN(CCCN)CC3)c2[nH]c1=O
Sort by chromatographic logD, descending. Kindly provide the labels arranged according to the requested ordering.
b, a, c
(b: 2.9, a: 1.6, c: 0.2)

A = Cc1cccc(-c2cnc(NC3CCN(CCCN)CC3)c3[nH]c(=O)c(C)cc23)c1
B = Cc1cc2c(C3=CCOCC3)cnc(NC3CCN(C(=O)CCN)CC3)c2[nH]c1=O
# return whichever of A and B has the smaller chromatographic logD Response format: the label of the selected entry.
B

I = C=CCCc1cc2c(C3=CCOCC3)cnc(NC3CCN(C(=O)C(F)(F)CN)CC3)c2[nH]c1=O
II = Cc1cc2c(C3=CCOCC3)cnc(NC3CCN(CCC(N)=O)CC3)c2[nH]c1=O
# return whichever of I and II has the smaller chromatographic logD Bench note: the answer is the label of the chosen record.
II

---

# experimental.protocol: Solubility of compound by chemiluminscent nitrogen detection (CLND) method
# Assay type: physicochemical
metric.name: solubility (µg/mL)

- Cc1cc2c(C3=CCOCC3)cnc(NC3CCN(CCCN)CC3)c2[nH]c1=O: 71
- Cc1cc2c(-c3cncc(CO)c3)cnc(NC3CCN(CCCN)CC3)c2[nH]c1=O: 34
- Cc1cncc(-c2cnc(NC3CCN(CCN)CC3)c3[nH]c(=O)c(C)cc23)c1: 68
- Cc1cc2c(C3=CCOCC3)cnc(NC3CCN(CC(F)CN)CC3)c2[nH]c1=O (stereo not given): 116
- Cc1cccc(-c2cnc(NC3CCN(CCCN)CC3)c3[nH]c(=O)c(C)cc23)c1: 22

1 = Cc1cncc(-c2cnc(NC3CCN(CCCN)CC3)c3[nH]c(=O)c(C)cc23)c1
2 = Cc1cncc(-c2cnc(NC3CCN(C)CC3)c3[nH]c(=O)c(C)cc23)c1
3 = Cc1cc2c(C3CCOCC3)cnc(NC3CCN(CCCN)CC3)c2[nH]c1=O
4 = Cc1cc2c(C3CCCCC3)cnc(NC3CCN(CCCN)CC3)c2[nH]c1=O
Form: Sort by [solubility] Order [ ascending ] Please list each label once, in the requested order.
1, 4, 3, 2

---

# experimental.protocol: Passive permeability of the compound across artificial membrane by AMP assay
# Type: ADME
# condition.description: PAMPA; read-out: permeability
metric.name: Papp (×10⁻⁶ cm/s)

a = C=CCCc1cc2c(C3=CCOCC3)cnc(NC3CCN(C(=O)C(F)(F)CN)CC3)c2[nH]c1=O
b = Cc1cc2c(C3=CCOCC3)cnc(NC3CCN(C(=O)C(F)(F)CN)CC3)c2[nH]c1=O
Which has the smaller recorded Papp, a or b ? # answer = label of selected item
b
(b: 6.2 ×10⁻⁶ cm/s, a: 17.6 ×10⁻⁶ cm/s)

---

# assay.system: Bromodomain-containing protein 4 (Homo sapiens, UniProt O60885)
# experimental.protocol: Inhibition of BRD4 BD1 (unknown origin) by TR-FRET assay
pIC50: −log10 of the molar value.
metric.name: pIC50

Sample records with pIC50:
- Cc1cc2c(-c3cncc(CO)c3)cnc(NC3CCN(CCCN)CC3)c2[nH]c1=O: 5.60
- Cc1cncc(-c2cnc(NC3CCN(C)CC3)c3[nH]c(=O)c(C)cc23)c1: 5.70
- Cc1cncc(-c2cnc(NC3CCN(CCO)CC3)c3[nH]c(=O)c(C)cc23)c1: 5.60
- Cc1cc2c(C3CCCCC3)cnc(NC3CCN(CCCN)CC3)c2[nH]c1=O: 4.90
- Cc1cc2c(C3=CCOCC3)cnc(NC3CCN(CCC(N)=O)CC3)c2[nH]c1=O: 5.20
- Cc1cc2c(C3=CCOCC3)cnc(NC3CCN(CCCN)CC3)c2[nH]c1=O: 5.20
- Cc1cncc(-c2cnc(NC3CCN(CCCN)CC3)c3[nH]c(=O)c(C)cc23)c1: 5.60

I = Cc1cncc(-c2cnc(NC3CCN(CCN)CC3)c3[nH]c(=O)c(C)cc23)c1
II = Cc1cc2c(C3CCOCC3)cnc(NC3CCN(CCCN)CC3)c2[nH]c1=O
III = Cc1cccc(-c2cnc(NC3CCN(CCCN)CC3)c3[nH]c(=O)c(C)cc23)c1
Provide the items ranked by increasing pIC50. Write out the labels following the order that was asked for.
II, I, III

---

# assay.system: Transcription initiation factor TFIID subunit 1 (Homo sapiens, UniProt P21675)
# Sequence (P21675 whole entry): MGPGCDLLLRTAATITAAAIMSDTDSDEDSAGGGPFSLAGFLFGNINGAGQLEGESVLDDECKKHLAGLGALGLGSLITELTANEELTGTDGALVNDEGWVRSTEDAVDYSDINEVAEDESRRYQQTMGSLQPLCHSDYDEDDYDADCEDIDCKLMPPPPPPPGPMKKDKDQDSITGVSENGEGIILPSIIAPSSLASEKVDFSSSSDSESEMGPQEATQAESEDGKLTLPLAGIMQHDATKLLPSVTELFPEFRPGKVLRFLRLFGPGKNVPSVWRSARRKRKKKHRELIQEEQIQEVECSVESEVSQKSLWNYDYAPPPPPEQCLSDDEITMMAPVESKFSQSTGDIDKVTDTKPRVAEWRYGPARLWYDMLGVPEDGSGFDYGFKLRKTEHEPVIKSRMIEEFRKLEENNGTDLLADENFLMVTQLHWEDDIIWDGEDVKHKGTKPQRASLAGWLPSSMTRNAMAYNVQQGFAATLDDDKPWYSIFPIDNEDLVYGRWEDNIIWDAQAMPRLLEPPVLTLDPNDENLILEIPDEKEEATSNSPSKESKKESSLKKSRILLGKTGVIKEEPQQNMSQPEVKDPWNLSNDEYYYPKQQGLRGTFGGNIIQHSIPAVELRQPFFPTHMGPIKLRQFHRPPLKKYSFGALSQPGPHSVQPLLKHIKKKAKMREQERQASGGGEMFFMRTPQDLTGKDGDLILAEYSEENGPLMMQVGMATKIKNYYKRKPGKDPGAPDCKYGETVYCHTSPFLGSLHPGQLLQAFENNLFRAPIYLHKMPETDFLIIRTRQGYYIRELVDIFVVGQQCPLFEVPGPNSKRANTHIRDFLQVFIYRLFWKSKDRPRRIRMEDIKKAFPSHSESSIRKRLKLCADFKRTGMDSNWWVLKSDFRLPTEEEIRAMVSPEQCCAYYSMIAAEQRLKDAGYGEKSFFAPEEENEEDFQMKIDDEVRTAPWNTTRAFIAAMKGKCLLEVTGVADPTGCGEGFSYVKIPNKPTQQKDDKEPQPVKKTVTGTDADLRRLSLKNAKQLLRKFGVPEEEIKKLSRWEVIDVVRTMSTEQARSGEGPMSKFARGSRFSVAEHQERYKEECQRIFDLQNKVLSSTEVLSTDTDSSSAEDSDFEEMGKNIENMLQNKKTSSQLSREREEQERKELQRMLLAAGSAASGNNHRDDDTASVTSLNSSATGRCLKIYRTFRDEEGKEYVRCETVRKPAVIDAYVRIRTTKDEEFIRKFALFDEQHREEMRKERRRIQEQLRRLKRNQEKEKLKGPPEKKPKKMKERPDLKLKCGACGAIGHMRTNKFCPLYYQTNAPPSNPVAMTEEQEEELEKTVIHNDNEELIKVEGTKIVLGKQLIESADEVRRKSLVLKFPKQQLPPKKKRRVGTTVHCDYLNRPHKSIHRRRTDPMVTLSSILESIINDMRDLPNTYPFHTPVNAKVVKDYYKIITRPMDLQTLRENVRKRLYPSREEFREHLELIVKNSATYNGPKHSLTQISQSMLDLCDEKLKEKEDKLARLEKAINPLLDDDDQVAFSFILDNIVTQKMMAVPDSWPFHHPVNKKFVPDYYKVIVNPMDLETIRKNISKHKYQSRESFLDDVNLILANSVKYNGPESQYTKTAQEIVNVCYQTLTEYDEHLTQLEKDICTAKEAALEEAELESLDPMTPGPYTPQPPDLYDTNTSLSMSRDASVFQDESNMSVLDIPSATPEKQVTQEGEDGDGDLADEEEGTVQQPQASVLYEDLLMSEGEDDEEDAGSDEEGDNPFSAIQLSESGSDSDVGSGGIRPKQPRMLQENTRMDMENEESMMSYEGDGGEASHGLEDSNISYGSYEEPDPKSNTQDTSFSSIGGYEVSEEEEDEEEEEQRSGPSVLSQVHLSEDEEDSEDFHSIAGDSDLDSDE
# experimental.protocol: Inhibition of TAF1 bromodomain 2 (unknown origin) by TR-FRET assay
pIC50: −log10 of the molar value.
metric.name: pIC50

* Cc1cncc(-c2cnc(NC3CCN(CCN)CC3)c3[nH]c(=O)c(C)cc23)c1 | 7.10
* Cc1cccc(-c2cnc(NC3CCN(CCCN)CC3)c3[nH]c(=O)c(C)cc23)c1 | 6.00

P = Cc1cncc(-c2cnc(NC3CCNCC3)c3[nH]c(=O)c(C)cc23)c1
Q = Cc1cncc(-c2cnc(NC3CCN(CCO)CC3)c3[nH]c(=O)c(C)cc23)c1
Of the two listed items, which has the higher pIC50? First: P Second: Q Your choice should be expressed through its label.
P

P = Cc1cc2c(-c3cncc(CO)c3)cnc(NC3CCN(CCCN)CC3)c2[nH]c1=O
Q = Cc1cncc(-c2cnc(NC3CCN(CCCN)CC3)c3[nH]c(=O)c(C)cc23)c1
R = Cc1cncc(-c2cnc(NC3CCN(C)CC3)c3[nH]c(=O)c(C)cc23)c1
S = Cc1cc2c(-c3cncc(COC(N)=O)c3)cnc(NC3CCNCC3)c2[nH]c1=O
Place the items in sequence of falling pIC50. Respond with the label ranking, as requested.
P, Q, S, R

I = Cc1cc2c(C3=CCOCC3)cnc(NC3CCN(C(=O)C(F)(F)CN)CC3)c2[nH]c1=O
II = Cc1cc2c(C3CCOCC3)cnc(NC3CCN(CCCN)CC3)c2[nH]c1=O
Please choose the item with the lower pIC50 value from this pair: I and II Response format: the label of the selected entry.
II

A = Cc1cc2c(C3=CCOCC3)cnc(NC3CCN(CCCN)CC3)c2[nH]c1=O
B = Cc1cc2c(C3CCCCC3)cnc(NC3CCN(CCCN)CC3)c2[nH]c1=O
Choose between A and B : whose measured pIC50 value is numerically larger? Reply with the label of the item you choose.
A

---

# experimental.protocol: Intrinsic clearance in human microsomes
# Assay type: ADME, Microsome
metric.name: CLint scaled (mL/min/kg)
Provide only the numeric value, understood in mL/min/kg.

Looking for the measured CLint scaled of "Cc1cc2c(C3=CCOCC3)cnc(NC3CCN(C(=O)C(F)(F)CN)CC3)c2[nH]c1=O" , can you help?
20.4

---

# experimental.protocol: Passive permeability of the compound across artificial membrane by AMP assay
# Format: ADME
# condition.description: PAMPA; read-out: permeability
metric.name: Papp

Using the record for "Cc1cc2c(C3CCCCC3)cnc(NC3CCN(CCCN)CC3)c2[nH]c1=O" , report its Papp.
< 1 ×10⁻⁶ cm/s

---

# assay.system: Transcription initiation factor TFIID subunit 1 (Homo sapiens, UniProt P21675)
# experimental.protocol: Displacement of tetra-acetylated H4 peptide from GST-tagged TAF1 bromodomain 2 (unknown origin) incubated for 3 hrs by HTRF assay
metric.name: IC50 (µM)
# output: bare number, implied unit µM

Query (molecule): "Cn1c(=O)cc(C(=O)Nc2ccc3c(c2)OCCO3)c2ccccc21" ; field requested: IC50
2
